# Target: HCV NS3 helicase NS3h_1b(con1) (Hepatitis C virus genotype 1b, UniProt Q9WMX2)
# Construct: truncated C-terminally His-tagged NS3 proteins lacking the N-terminal protease, called NS3h; His-tag (C); made in house
# Method Summary: MBHA screen of NCI mechanistic set library at 20 μM (percent inhibition, compound interference)
# Assay type: biochemical
# Condition Info: compounds at 20 μM, MBHA with DNA substrate; assay interference calculated with Equation 2

Compound	Unit Abbrev	Int.* (Ratio) (Interference)
COc1cccc2c1cc([N+](=O)[O-])c1c(C(=O)O)cc3c(c12)OCO3	Ratio	1.14
CN1c2c(nc(N)[nH]c2=O)NCC1CCNc1ccc(C(=O)N[C@@H](CCC(=O)[O-])C(=O)[O-])cc1.[Na+].[Na+] (stereo partly shown)	Ratio	0.95
CCOC(=O)Cc1cc(=O)oc2cc(O)ccc12	Ratio	1.06
O=S(=O)(c1cccc(N=C=S)c1)c1cccc(N=C=S)c1	Ratio	0.99
CC(=O)C(N1CCCCC1)C(O)(C(F)(F)F)C(F)(F)F (stereo not shown)	Ratio	0.82
CCCCCCCCCCNCCSSCc1ccc(Cl)cc1.Cl	Ratio	0.81
O=C1c2ccccc2-c2c1c1ccccc1c(=O)n2Cc1ccccc1	Ratio	0.97
CCC(C#N)(c1ccccc1)N(CCc1ccccc1)C(=O)c1ccccc1 (stereo not shown)	Ratio	0.92
COC1OC(COCc2ccc(Cl)cc2)C(OCc2ccc(Cl)cc2)C1O (stereo not shown)	Ratio	0.97
COC1=CC(=O)c2c(ccc3ncnc(N)c23)C1=O	Ratio	1.09
CC1(C)O[C@@H]2C[C@H]3[C@@H]4C[C@H](F)C5=CC(=O)C=C[C@]5(C)[C@@]4(F)[C@@H](O)C[C@]3(C)[C@]2(C(=O)CO)O1	Ratio	1.04
O=C(CCCN1CCC(C(O)c2ccc(F)cc2)CC1)c1ccc(F)cc1 (stereo not shown)	Ratio	0.91
CC1(C)NC(=O)N(CCCCCCN2C(=O)NC(C)(C)C2=O)C1=O	Ratio	1.08
CC(=O)[O][Hg][c]1c(C)c(C)c(C)c(C)c1C	Ratio	1.04
CN(C)/N=N/c1nc[nH]c1C(N)=O	Ratio	0.95
CCCCCCCCCCCCCCCCCCOP(=O)([O-])OCC[N+](C)(C)C	Ratio	0.85
NCCCNCCSP(=O)(O)O	Ratio	0.92
COC(=O)[C@@]12OC[C@]34[C@H]([C@@H](O)[C@@H]1O)[C@@]1(C)CC(=O)C(O)=C(C)[C@@H]1C[C@H]3OC(=O)[C@H](OC(=O)/C=C(\C)C(C)C)[C@@H]24	Ratio	0.95
CC12CCC3C(CCC4CC(OC(=O)Cc5ccc(N(CCCl)CCCl)cc5)CCC43C)C1CCC(=O)N2 (stereo not shown)	Ratio	1.03
COc1ccc2cc1Oc1ccc(cc1)CC1c3cc(c(OC)cc3CCN1C)Oc1c(OC)c(OC)cc3c1C(C2)N(C)CC3 (stereo not shown)	Ratio	0.96
Nc1ccc(S(=O)(=O)Nc2cnc3c(Cl)cccc3n2)cc1	Ratio	0.89
O=c1[nH]c(=O)n(C2OC(CO)C(O)C2O)cc1F (stereo not shown)	Ratio	1.12
O=C1NC(c2cccc3ccccc23)Nc2ccccc21 (stereo not shown)	Ratio	1.14
Nc1nc(Cl)nc2c1ncn2[C@H]1C[C@H](O)[C@@H](CO)O1	Ratio	0.89
N#CC1=C(N)Oc2c(ccc3cccnc23)C1c1ccccc1 (stereo not shown)	Ratio	0.98
COc1ccc(/C=C2\Cc3ccccc3C2=O)cc1OC	Ratio	1.07
C=CCOC1OC(CO[Si](C)(C)C(C)(C)C)C(OCc2ccccc2)C(OCc2ccccc2)C1OCc1ccccc1 (stereo not shown)	Ratio	0.90
C1CCNCC1.S=C(S)N1CCCCC1	Ratio	1.17

====

# Target: HCV NS3 helicase NS3h_1b(con1) (Hepatitis C virus genotype 1b, UniProt Q9WMX2)
# Construct: truncated C-terminally His-tagged NS3 proteins lacking the N-terminal protease, called NS3h; His-tag (C); made in house
# Method Summary: biochemical
# Assay type: biochemical, hepatitis C virus genotype 1b(con1)
# Condition Info: DNA-based MBHA, genotype 1b; read-out: DNA Helicase NS3h_1b IC50 (μM) ± SD
Lab note: cut-off is 4 µM. Strictly less in IC50 is met. Exactly 4 µM or more is not met.

In [3]: df
Out[3]:
                               smiles_entry                                    target  category_label
0  Cc1ccc2nc(-c3ccc4nc(-c5ccc(NC(=O)c6cc(C(F)(F)F)cc(C(F)(F)F)c6)cc5)sc4c3)sc2c1S(=O)(=O)O  HCV NS3 helicase NS3h_1b(con1) (Hepatitis C virus genotype 1b, UniProt Q9WMX2)         not met
1  Cc1ccc2nc(-c3ccc4nc(-c5ccc(NC(=O)c6ccc(F)cc6)cc5)sc4c3)sc2c1S(=O)(=O)O.N  HCV NS3 helicase NS3h_1b(con1) (Hepatitis C virus genotype 1b, UniProt Q9WMX2)         not met
2  Cc1ccc2nc(-c3ccc4nc(-c5ccc(NC(=O)c6ccc7nc(-c8ccc(N)cc8)sc7c6)cc5)sc4c3)sc2c1S(=O)(=O)O  HCV NS3 helicase NS3h_1b(con1) (Hepatitis C virus genotype 1b, UniProt Q9WMX2)         not met
3  Cc1ccc2nc(-c3ccc4nc(-c5ccc(NC(=O)c6ccc7ccccc7c6)cc5)sc4c3)sc2c1S(=O)(=O)O  HCV NS3 helicase NS3h_1b(con1) (Hepatitis C virus genotype 1b, UniProt Q9WMX2)             met

====

# key: entry, value: IC50
# Target: NS3h_1b (Hepatitis C virus genotype 1b)
# Construct: truncated C-terminally His-tagged NS3 proteins lacking the N-terminal protease, called NS3h; His-tag (C); made in house
# Sequence (Q9WMX2 1192-1657): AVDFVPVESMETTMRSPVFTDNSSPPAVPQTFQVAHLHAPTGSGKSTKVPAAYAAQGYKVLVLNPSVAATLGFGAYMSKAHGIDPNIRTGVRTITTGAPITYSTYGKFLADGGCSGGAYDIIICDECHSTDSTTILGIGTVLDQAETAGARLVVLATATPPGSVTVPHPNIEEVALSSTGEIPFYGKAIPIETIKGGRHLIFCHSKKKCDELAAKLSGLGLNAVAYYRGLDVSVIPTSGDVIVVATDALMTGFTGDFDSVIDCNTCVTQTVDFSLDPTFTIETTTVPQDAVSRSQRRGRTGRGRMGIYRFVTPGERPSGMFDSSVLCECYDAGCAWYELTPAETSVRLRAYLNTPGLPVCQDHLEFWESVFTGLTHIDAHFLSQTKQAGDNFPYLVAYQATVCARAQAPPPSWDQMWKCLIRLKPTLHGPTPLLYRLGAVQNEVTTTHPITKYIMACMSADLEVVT
# Method Summary: ATPase assay without RNA
# Assay type: biochemical, hepatitis C virus genotype 1b(con1)
Reported Endpoint: IC50 (µM)

>>> print(df.to_string())
                               smiles_entry  unit_abbrev  inequality_operator  recorded_result
0  Cc1ccc2nc(-c3ccc4nc(-c5ccc(NC(=O)c6ccc(N)cc6)cc5)sc4c3)sc2c1S(=O)(=O)O           µM                    =              194
1  Cc1ccc2nc(-c3ccc4nc(-c5ccc(N)cc5)sc4c3)sc2c1S(=O)(=O)O           µM                    >              200
2  Cc1ccc2nc(-c3ccc4nc(-c5ccc(NC(=O)c6cccc(Cl)c6)cc5)sc4c3)sc2c1S(=O)(=O)O           µM                    =               74
3  Cc1ccc2nc(-c3ccc4nc(-c5ccc(NC(=O)c6ccc(Br)cc6)cc5)sc4c3)sc2c1S(=O)(=O)O           µM                    =               50

====

# Method Summary: Absorbance and fluorescence properties
# Assay type: physicochemical
Reported Endpoint: Fluorescence Emmax (nm)

>>> print(df.to_string())
                                   compound  unit_abbrev  recorded_result
0  Cc1ccc2nc(-c3ccc4nc(-c5ccc(N)cc5)sc4c3)sc2c1S(=O)(=O)O [Compound P2a]           nm              553
1  Cc1ccc2nc(-c3ccc4nc(-c5ccc(NC(=O)c6ccc(Cl)c(Cl)c6)cc5)sc4c3)sc2c1S(=O)(=O)O [Compound 18]           nm              501
2  Cc1ccc2nc(-c3ccc4nc(-c5ccc(NC(=O)c6ccc(Br)cc6)cc5)sc4c3)sc2c1S(=O)(=O)O [Compound 15]           nm              497
3  Cc1ccc2nc(-c3ccc4nc(-c5ccc(NC(=O)c6ccc(C(F)(F)F)cc6)cc5)sc4c3)sc2c1S(=O)(=O)O [Compound 12]           nm              498
4  Cc1ccc2nc(-c3ccc4nc(-c5ccc(NC(=O)c6ccc(N)cc6)cc5)sc4c3)sc2c1S(=O)(=O)O [Compound 6]           nm              429
5  Cc1ccc2nc(-c3ccc4nc(-c5ccc(NC(=O)c6cc(C(F)(F)F)ccc6F)cc5)sc4c3)sc2c1S(=O)(=O)O [Compound 25]           nm              497
6  Cc1ccc2nc(-c3ccc4nc(-c5ccc(NC(=O)c6cc(C(F)(F)F)cc(C(F)(F)F)c6)cc5)sc4c3)sc2c1S(=O)(=O)O [Compound 24]           nm              497
7  Cc1ccc2nc(-c3ccc4nc(-c5ccc(NC(=O)c6cccc(Cl)c6)cc5)sc4c3)sc2c1S(=O)(=O)O [Compound 17]           nm              502
8  Cc1ccc2nc(-c3ccc4nc(-c5ccc(NC(=O)c6ccc7nc(-c8ccc(N)cc8)sc7c6)cc5)sc4c3)sc2c1S(=O)(=O)O [Compound 35]           nm              532
